Hello, the source for this data is patent US9750689B2, in case you need it.

- Protocol description: Percutaneous absorption testing (percent of applied dose that penetrated past the stratum corneum)
- Measurement setup: 4 h
For each record, write down the corresponding Percutaneous Absorption Testing, 4 Hours.
The reply should contain only the number, in %.

Entry "CN(C)CCC=C1c2ccccc2C=Cc2ccccc21" has what Percutaneous Absorption Testing, 4 Hours?
2

Entry CCCCN1CCCCC1C(=O)Nc1c(C)cccc1C (centres unmarked) has what Percutaneous Absorption Testing, 4 Hours?
1

Entry "O=C(O)Cc1ccccc1Nc1c(Cl)cccc1Cl" has what Percutaneous Absorption Testing, 4 Hours?
1

Entry "CC(=O)CCCCn1c(=O)c2c(ncn2C)n(C)c1=O" has what Percutaneous Absorption Testing, 4 Hours?
7

Entry NCC(CC(=O)O)c1ccc(Cl)cc1 (centres unmarked) has what Percutaneous Absorption Testing, 4 Hours?
1
